- procedure-details: Metabolic stability with human liver microsomes
- Type: in vitro ADME
- experimental-parameters: pH 7.6; pooled human liver microsomes, 1 mg/ml protein, 1 μM test compound, 37° C., NADPH; read-out: t1/2 INVITRO
assay-endpoint: half-life at 1 μM

compound	observed
CN1C(=O)N(c2ccnc(C(F)(F)F)c2)C2=C(C(=O)CC2)C1c1ccc(C#N)cc1S(C)(=O)=O (centres unmarked)	> 130 min
CN1C(=O)N(c2cccc(C(F)(F)F)c2)C2=C(C(=O)CC2)C1c1ccc(C#N)cc1[S+](C)[O-] (single isomer, unassigned) [Example 30B]	> 130 min

====

- procedure-details: Aqueous solubility
- Assay type: physicochemical
- experimental-parameters: McIlvaine buffer pH 6.8 with 2.5% DMSO, pH 6.8, aqueous buffer, kinetic from dmso stock, McIlvaine buffer pH 6.8, 2.5% DMSO, 24 h shaking
assay-endpoint: solubility at 24 h (mg/mL)

compound	observed
N#Cc1ccc(C2C3=C(CCC3=O)N(c3cccc(C(F)(F)F)c3)C(=O)N2C(=O)N[C@H]2CCC[C@@H]2O)cc1 (stereo partly drawn) [Example 42.4]	0.021
CNC(=O)N1C(=O)N(c2cccc(C(F)(F)F)c2)C2=C(C(=O)CC2)[C@H]1c1ccc(C#N)cc1S(C)(=O)=O [Example 47.1]	0.083
COC(=O)N1C(=O)N(c2cccc(C(F)(F)F)c2)C2=C(C(=O)CC2)[C@H]1c1ccc(C#N)cc1S(C)(=O)=O [Example 33]	0.043

====

- tested-system: neutrophil elastase in human plasma (Homo sapiens (Human))
- Sequence (P08246 30-247): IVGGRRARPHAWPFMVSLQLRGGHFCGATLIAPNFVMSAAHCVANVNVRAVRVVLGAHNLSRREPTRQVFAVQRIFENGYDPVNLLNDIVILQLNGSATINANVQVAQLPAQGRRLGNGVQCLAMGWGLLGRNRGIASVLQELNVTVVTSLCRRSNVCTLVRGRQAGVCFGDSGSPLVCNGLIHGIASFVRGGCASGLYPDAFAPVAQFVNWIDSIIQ
- procedure-details: Neutrophil elastase inhibitory activity in human plasma (zymosan-stimulated blood)
- Type: biochemical
- experimental-parameters: neutrophil elastase enriched human plasma from zymosan-stimulated blood; read-out: EC50

compound	tested-system	EC50
CC(C)NC(=O)N1C(=O)N(c2cccc(C(F)(F)F)c2)C2=C(C(=O)CC2)[C@H]1c1ccc(C#N)cc1S(C)(=O)=O [Example 47.5]	neutrophil elastase in human plasma (Homo sapiens (Human))	1 nM
N#Cc1ccc(C2C3=C(CCC3=O)N(c3cccc(C(F)F)c3)C(=O)N2C(=O)NCCO)cc1 (stereo not shown) [Example 52.3]	neutrophil elastase in human plasma (Homo sapiens (Human))	< 1 nM
CNC(=O)N1C(=O)N(c2cccc(C(F)(F)F)c2)C2=C(C(=O)CC2)[C@H]1c1ccc(C#N)cc1F [Example 49A]	neutrophil elastase in human plasma (Homo sapiens (Human))	4 nM
CS(=O)(=O)c1cc(C#N)ccc1[C@H]1NC(=O)N(c2cccc(C(F)F)c2)C2=C1C(=O)CC2 [Example 15.4A]	neutrophil elastase in human plasma (Homo sapiens (Human))	2 nM
CCN1C(=O)N(c2cccc(C(F)(F)F)c2)C2=C(C(=O)CC2)C1c1ccc(C#N)cc1S(C)(=O)=O (stereo not shown) [Example 24]	neutrophil elastase in human plasma (Homo sapiens (Human))	2 nM
CCNC(=O)N1C(=O)N(c2cccc(C(F)F)c2)C2=C(C(=O)CC2)C1c1ccc(C#N)cc1 (stereo not shown) [Example 52.2]	neutrophil elastase in human plasma (Homo sapiens (Human))	1 nM
CCS(=O)(=O)N1C(=O)N(c2cccc(C(F)(F)F)c2)C2=C(C(=O)CC2)C1c1ccc(C#N)cc1 (stereo not shown) [Example 35]	neutrophil elastase in human plasma (Homo sapiens (Human))	7 nM
CNC(=O)N1C(=O)N(c2cccc(C(F)F)c2)C2=C(C(=O)CC2)C1c1ccc(C#N)cc1 (stereo not shown) [Example 52.1]	neutrophil elastase in human plasma (Homo sapiens (Human))	< 1 nM
CCNC(=O)N1C(=O)N(c2cccc(C(F)(F)F)c2)C2=C(C(=O)CC2)[C@H]1c1ccc(C#N)cc1S(C)(=O)=O [Example 47.2]	neutrophil elastase in human plasma (Homo sapiens (Human))	< 1 nM
CS(=O)(=O)N1C(=O)N(c2cccc(C(F)(F)F)c2)C2=C(C(=O)CC2)[C@H]1c1ccc(C#N)cc1 [Example 9A]	neutrophil elastase in human plasma (Homo sapiens (Human))	2 nM
CC(C)(O)CNC(=O)N1C(=O)N(c2cccc(C(F)(F)F)c2)C2=C(C(=O)CC2)[C@H]1c1ccc(C#N)cc1 [Example 41A]	neutrophil elastase in human plasma (Homo sapiens (Human))	< 1 nM
CS(=O)(=O)c1cc(C#N)ccc1[C@@H]1C2=C(CCC2=O)N(c2cccc(C(F)(F)F)c2)C(=O)N1CC#N [Example 23]	neutrophil elastase in human plasma (Homo sapiens (Human))	< 1 nM
CN(CCO)C(=O)CN1C(=O)N(c2cccc(C(F)(F)F)c2)C2=C(C(=O)CC2)C1c1ccc(C#N)cc1S(C)(=O)=O (stereo not shown) [Example 21]	neutrophil elastase in human plasma (Homo sapiens (Human))	1 nM
CS(=O)(=O)c1cc(C#N)ccc1[C@H]1NC(=O)N(c2cccc(C(F)(F)F)c2)C2=C1C(=O)CC2 [Example 10A]	neutrophil elastase in human plasma (Homo sapiens (Human))	1 nM
CCOC(=O)N1C(=O)N(c2cccc(C(F)(F)F)c2)C2=C(C(=O)CC2)C1c1ccc(C#N)cc1 (stereo not shown) [Example 31]	neutrophil elastase in human plasma (Homo sapiens (Human))	14 nM
CN1C(=O)N(c2cccc(C(F)(F)F)c2)C2=C(C(=O)CC2)[C@H]1c1ccc(C#N)cc1S(C)(=O)=O [Example 25]	neutrophil elastase in human plasma (Homo sapiens (Human))	1 nM
